IC50 values, listed per item
Molecular target: UniProtKB P28221
Test: Displacement of [3H]5-HT binding from the cloned human 5-hydroxytryptamine 1D receptor stably expressed in CHO cells
Type: cell-based

Req: Indicate its recorded IC50; the compound in question is "C=CCNC[C@@H]1CCN(CCc2c[nH]c3ccc(-n4cnnc4)cc23)C1"
Resp: 17 nM

Req: Output measured IC50 for this item: "O[C@@H]1CCN(CCc2c[nH]c3ccc(-n4cnnc4)cc23)C1"
Resp: 9 nM

Req: For the compound "c1ccc(CNC[C@@H]2CCN(CCc3c[nH]c4ccc(-n5cnnc5)cc34)C2)nc1" , give its measured IC50 value.
Resp: 3.6 nM

Req: Specify reported IC50 for the compound shown: "C[C@H](NC[C@@H]1CCN(CCc2c[nH]c3ccc(-n4cnnc4)cc23)C1)c1ccccc1"
Resp: 0.45 nM

Req: Annotate the compound "c1ccc(CNC[C@@H]2CCN(CCc3c[nH]c4ccc(Cn5cncn5)cc34)C2)cc1" with its measured IC50.
Resp: 3.2 nM

Req: Complete the entry with IC50 for "c1cc2[nH]cc(CCN3CCCC3)c2cc1-n1cnnc1"
Resp: 3.1 nM

Req: // fetch IC50 given entry "C[C@H](NC[C@@H]1CCN(CCc2c[nH]c3ccc(C[C@H]4COC(=O)N4)cc23)C1)c1ccccc1"
Resp: 0.3 nM

Req: Quick one: give measured IC50 for "c1ccc(CO[C@H]2CCN(CCc3c[nH]c4ccc(-n5cnnc5)cc34)C2)cc1"
Resp: 20 nM

Req: Provide one value: measured IC50 of "c1cc2[nH]cc(CCN3CCC3)c2cc1-n1cnnc1"
Resp: 1.1 nM

Req: Return IC50 for the following compound: "O=C1N[C@@H](Cc2ccc3[nH]cc(CCN4CC[C@@H](CNCc5ccccc5)C4)c3c2)CO1"
Resp: 0.35 nM

Req: Entry "c1ccc(NC[C@@H]2CCN(CCc3c[nH]c4ccc(-n5cnnc5)cc34)C2)cc1" needs its IC50 filled in; supply it.
Resp: 9.1 nM

Req: Report measured IC50; entry is "c1cncc(CNC[C@@H]2CCN(CCc3c[nH]c4ccc(-n5cnnc5)cc34)C2)c1"
Resp: 3.8 nM

Req: Give the measured IC50 for "c1ccc(COC[C@@H]2CCCN2CCc2c[nH]c3ccc(-n4cnnc4)cc23)cc1"
Resp: 0.81 nM

Req: For "c1cc(CNC[C@@H]2CCN(CCc3c[nH]c4ccc(-n5cnnc5)cc34)C2)ccn1" , write its IC50.
Resp: 8.5 nM

Req: For the compound "c1cc(CNC[C@@H]2CCN(CCc3c[nH]c4ccc(-n5cnnc5)cc34)C2)co1" , report IC50.
Resp: 0.45 nM

Req: For the compound "CC(C)(NC[C@@H]1CCN(CCc2c[nH]c3ccc(-n4cnnc4)cc23)C1)c1ccccc1" , report IC50.
Resp: 1 nM

Req: Given "c1ccc(COC[C@@H]2CCN(CCCc3c[nH]c4ccc(-n5cnnc5)cc34)C2)cc1" , respond with its IC50.
Resp: 2.1 nM

Req: Give a short answer stating reported IC50 for "CC(=O)Nc1ccc(CNC[C@@H]2CCN(CCc3c[nH]c4ccc(-n5cnnc5)cc34)C2)cc1" .
Resp: 12 nM

###

Biological target: 5-hydroxytryptamine receptor 1D (Homo sapiens)
Sequence (P28221 whole entry): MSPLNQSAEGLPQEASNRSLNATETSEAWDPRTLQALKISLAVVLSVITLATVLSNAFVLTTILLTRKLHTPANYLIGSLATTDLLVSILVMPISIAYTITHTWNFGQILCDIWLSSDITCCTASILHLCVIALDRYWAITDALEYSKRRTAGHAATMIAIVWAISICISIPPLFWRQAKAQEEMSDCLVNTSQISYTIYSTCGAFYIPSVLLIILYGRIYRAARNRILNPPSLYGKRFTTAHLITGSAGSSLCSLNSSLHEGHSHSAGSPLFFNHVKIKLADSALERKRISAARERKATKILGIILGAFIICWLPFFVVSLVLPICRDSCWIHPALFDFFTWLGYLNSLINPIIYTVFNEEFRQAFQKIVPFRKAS
Assay: Displacement of [3H]5-HT binding from the cloned human 5-hydroxytryptamine 1D receptor stably expressed in CHO cells
Assay type: cell-based
metric: IC50 (nM)
Response body: numeric value in nM, unit text excluded.

structure.string: CN(Cc1ccccc1)C[C@@H]1CCN(CCCc2c[nH]c3ccc(-n4cnnc4)cc23)C1
measured.result: 4.2

Req: Specify measured IC50 for "CNS(=O)(=O)Cc1ccc2[nH]cc(CCN3CC[C@@H](CNCc4ccccc4)C3)c2c1" .
Resp: 1.1

Req: Identify the reported IC50 for the following entry. "CC(=O)N(Cc1ccccc1)C[C@@H]1CCN(CCc2c[nH]c3ccc(-n4cnnc4)cc23)C1"
Resp: 1.1

Req: Give IC50 for "CN(Cc1ccccc1)C[C@@H]1CCCN1CCc1c[nH]c2ccc(-n3cnnc3)cc12"
Resp: 0.8

Req: Specify IC50 for "C[C@H](NC[C@@H]1CCN(CCc2c[nH]c3ccc(Cn4cncn4)cc23)C1)c1ccccc1" and stop.
Resp: 2.5
